Target: plasma purified human AT-III (antithrombin III), in complex with full-length unfractionated heparin (AT-III/UFH)
QUANTITY_NAME: K0.5-mut/K0.5-wt (against Catalyst Biosciences WT FIXa)

FIXa-R318Y/R338E/R403E/E410N/T412A (protein) chain 1: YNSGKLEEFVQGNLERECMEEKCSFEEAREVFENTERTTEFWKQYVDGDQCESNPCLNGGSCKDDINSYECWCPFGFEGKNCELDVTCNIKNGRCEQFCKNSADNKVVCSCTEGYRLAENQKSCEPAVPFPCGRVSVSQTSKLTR chain 2: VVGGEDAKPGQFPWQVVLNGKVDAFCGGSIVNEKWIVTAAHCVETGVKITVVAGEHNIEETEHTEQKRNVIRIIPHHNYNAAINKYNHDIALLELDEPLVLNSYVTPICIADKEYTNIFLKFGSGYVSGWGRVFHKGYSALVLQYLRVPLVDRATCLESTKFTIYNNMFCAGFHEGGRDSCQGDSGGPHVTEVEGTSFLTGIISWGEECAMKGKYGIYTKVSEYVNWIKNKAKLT :: > 517
FIXa-D104N/K106S/K228N/K247N/N249S (protein) chain 1: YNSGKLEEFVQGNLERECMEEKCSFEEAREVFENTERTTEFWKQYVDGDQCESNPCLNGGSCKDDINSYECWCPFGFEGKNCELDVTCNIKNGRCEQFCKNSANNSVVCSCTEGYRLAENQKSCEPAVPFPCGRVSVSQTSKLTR chain 2: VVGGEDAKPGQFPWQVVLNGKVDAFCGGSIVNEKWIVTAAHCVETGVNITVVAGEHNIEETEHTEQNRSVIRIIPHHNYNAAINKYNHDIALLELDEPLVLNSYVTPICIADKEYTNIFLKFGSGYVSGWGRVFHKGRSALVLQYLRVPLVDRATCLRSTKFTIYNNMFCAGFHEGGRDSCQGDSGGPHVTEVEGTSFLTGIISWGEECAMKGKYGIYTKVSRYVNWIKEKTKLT :: 2.1
FIXa-R318Y/R338E/N346D/R403E/E410N (protein) chain 1: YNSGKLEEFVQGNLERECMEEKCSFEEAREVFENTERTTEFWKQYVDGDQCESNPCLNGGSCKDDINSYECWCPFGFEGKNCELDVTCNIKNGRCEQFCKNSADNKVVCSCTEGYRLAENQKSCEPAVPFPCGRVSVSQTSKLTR chain 2: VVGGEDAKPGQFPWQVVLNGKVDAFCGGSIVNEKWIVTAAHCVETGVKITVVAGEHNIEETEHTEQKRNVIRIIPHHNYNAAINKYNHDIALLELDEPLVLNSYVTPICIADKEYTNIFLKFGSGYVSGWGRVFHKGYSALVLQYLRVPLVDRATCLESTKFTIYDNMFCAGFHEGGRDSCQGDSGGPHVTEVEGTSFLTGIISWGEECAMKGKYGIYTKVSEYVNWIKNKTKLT :: > 517
FIXa-D104N/K106S/N260S/R318Y/R338E/R403E/E410N (protein) chain 1: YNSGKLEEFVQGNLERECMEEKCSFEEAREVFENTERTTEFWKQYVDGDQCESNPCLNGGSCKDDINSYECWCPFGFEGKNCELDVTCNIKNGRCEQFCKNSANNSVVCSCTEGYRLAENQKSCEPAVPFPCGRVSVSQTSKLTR chain 2: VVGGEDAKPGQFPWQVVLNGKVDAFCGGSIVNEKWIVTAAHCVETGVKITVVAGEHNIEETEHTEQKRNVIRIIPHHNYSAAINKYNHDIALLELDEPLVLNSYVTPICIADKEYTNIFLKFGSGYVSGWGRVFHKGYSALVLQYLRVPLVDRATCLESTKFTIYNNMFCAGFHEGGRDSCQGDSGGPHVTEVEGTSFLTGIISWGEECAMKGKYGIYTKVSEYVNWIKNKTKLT :: > 517
FIXa-I251S/R318Y/R338E/R403E/E410N (protein) chain 1: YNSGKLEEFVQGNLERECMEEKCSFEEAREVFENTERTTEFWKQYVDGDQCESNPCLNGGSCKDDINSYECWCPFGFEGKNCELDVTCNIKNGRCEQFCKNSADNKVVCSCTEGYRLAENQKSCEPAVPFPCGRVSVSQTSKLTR chain 2: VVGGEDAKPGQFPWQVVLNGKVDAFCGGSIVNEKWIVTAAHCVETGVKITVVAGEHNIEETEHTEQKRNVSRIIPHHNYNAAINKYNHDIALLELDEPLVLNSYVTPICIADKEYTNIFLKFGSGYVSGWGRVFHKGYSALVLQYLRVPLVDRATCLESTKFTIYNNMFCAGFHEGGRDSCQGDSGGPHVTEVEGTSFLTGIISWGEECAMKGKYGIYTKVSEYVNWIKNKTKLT :: > 517

Prompt: Which K0.5-mut/K0.5-wt (against Catalyst Biosciences WT FIXa) is listed for FIXa-R318Y/R338E/E410S (protein) chain 1: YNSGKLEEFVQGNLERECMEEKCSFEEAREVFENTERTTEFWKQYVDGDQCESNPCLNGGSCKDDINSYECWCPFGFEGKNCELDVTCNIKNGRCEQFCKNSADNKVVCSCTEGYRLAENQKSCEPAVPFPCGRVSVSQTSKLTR chain 2: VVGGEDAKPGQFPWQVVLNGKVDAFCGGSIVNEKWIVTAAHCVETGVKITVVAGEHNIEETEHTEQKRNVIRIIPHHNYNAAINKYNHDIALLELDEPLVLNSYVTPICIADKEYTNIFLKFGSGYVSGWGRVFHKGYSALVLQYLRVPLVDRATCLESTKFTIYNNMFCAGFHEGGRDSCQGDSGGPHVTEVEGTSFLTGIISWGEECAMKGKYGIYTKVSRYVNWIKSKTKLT ?
Response: 279

Prompt: Which K0.5-mut/K0.5-wt (against Catalyst Biosciences WT FIXa) is listed for FIXa-A103N/N105S/K247N/N249S/R318Y/R338E/R403E/E410N (protein) chain 1: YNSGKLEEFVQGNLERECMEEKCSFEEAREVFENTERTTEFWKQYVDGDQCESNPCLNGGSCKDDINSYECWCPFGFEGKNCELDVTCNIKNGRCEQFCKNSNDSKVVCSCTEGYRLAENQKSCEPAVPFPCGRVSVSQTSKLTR chain 2: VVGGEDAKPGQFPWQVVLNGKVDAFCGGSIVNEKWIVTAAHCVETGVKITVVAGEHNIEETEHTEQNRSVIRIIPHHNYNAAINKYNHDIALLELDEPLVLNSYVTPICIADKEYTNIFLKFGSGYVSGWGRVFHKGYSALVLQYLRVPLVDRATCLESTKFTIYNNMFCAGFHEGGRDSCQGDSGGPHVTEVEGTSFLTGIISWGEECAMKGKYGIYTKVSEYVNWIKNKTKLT ?
Response: 129

Prompt: Which K0.5-mut/K0.5-wt (against Catalyst Biosciences WT FIXa) is listed for FIXa-Y155F/R318Y/R338E/N346D/R403E/E410N (protein) chain 1: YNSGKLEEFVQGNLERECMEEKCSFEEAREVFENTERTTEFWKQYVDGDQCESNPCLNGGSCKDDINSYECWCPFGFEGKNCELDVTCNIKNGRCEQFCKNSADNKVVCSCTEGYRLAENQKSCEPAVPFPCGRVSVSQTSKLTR chain 2: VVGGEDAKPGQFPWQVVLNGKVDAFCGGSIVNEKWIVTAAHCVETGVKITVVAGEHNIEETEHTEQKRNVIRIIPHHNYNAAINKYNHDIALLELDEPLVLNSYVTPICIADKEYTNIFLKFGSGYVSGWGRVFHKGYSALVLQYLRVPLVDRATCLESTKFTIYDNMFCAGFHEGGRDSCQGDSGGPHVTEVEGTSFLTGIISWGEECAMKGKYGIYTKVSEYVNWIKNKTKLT ?
Response: > 517
